Below, each of the molecules is paired with its reported IC50 value.
System: ARPE-19 cells
Experiment: Fibronectin deposition assay in TGFβ-stimulated ARPE-19 cells
Format: cell-based, human
Settings: Homo sapiens; fibronectin deposition; ARPE-19 cells stimulated with TGFβ, incubated 96 hours; read-out: IC50

Below, each entry is followed by its recorded IC50 result.
1) OCCN1CCN(CCCN2c3ccccc3Sc3ccc(Cl)cc32)CC1 [perphenazine]; > 10 µM
2) O=C(CCCN1CC=C(n2c(=O)[nH]c3ccccc32)CC1)c1ccc(F)cc1 [droperidol]; 5 to 10 µM
3) O=C1NCN(c2ccccc2)C12CCN(CCCC(c1ccc(F)cc1)c1ccc(F)cc1)CC2 [fluspirilene]; ≤ 5 µM
4) O=C1NCCN1CCN1CCC(c2cn(-c3ccc(F)cc3)c3ccc(Cl)cc23)CC1 [sertindole]; ≤ 5 µM
5) CN1CCN(C2=Nc3ccccc3Oc3ccc(Cl)cc32)CC1 [loxapine]; ≤ 5 µM

Lookup: Query: IC50; subject: c1ccc2c(c1)Oc1sccc1N=C2N1CCNCC1 [solupine]
Found: ≤ 5 µM
